Quick record of pIC50 values for WDR5 (Homo sapiens, UniProt P61964).
pIC50: −log10 of the molar value.
valueKind: pIC50

• CNc1nccn1Cc1cc2c(c(-c3cc(CO)ccc3Cl)c1)CCN(Cc1ccc(F)c(OC)c1)C2=O = 6.00 to 8.00
• CCOc1cc([C@H](C)N2CCc3c(cc(Cn4cncc4C)cc3-c3cn(C)nc3C)C2=O)ncc1C#N = > 8.00
• CCOc1cc([C@H](C)N2CCc3c(CN4CCOCC4)cc(Cn4ccnc4NC)cc3C2=O)ncc1Cl = 6.00 to 8.00
• CNc1nccn1Cc1cc2c(c(-c3cn(C)nc3C)c1)CCN([C@H](C)c1cc(OC)c(F)cn1)C2=O = 6.00 to 8.00

* * *

Quick record of IC50 values for WDR5 (Homo sapiens).
valueKind: IC50

* CNc1nccn1Cc1cc(CN2CC(F)(F)C2)c2c(c1)C(=O)N(Cc1cc(OC)c(F)cn1)CC2 [Example 38] | 0.01 to 1 µM
* CCOc1cc(CN2CCc3c(cc(CCN4CC[C@H]4C)cc3-c3ccc(F)nc3C)C2=O)ncc1C#N [Example 245] | 0.01 to 1 µM
* CCOc1cc([C@H](C)N2CCc3c(cc(CCN(C)CCF)cc3-c3ccc(F)nc3C)C2=O)ncc1C#N [Example 247] | 0.01 to 1 µM
* CCOc1cc(C(C)N2CCc3c(cc(CCN(C)CC)cc3C(O)C(C)(C)C)C2=O)ncc1C#N (stereo not drawn) [compound 257] | 0.01 to 1 µM
* CNc1nccn1Cc1cc(CN2CC[C@@H](OC)C2)c2c(c1)C(=O)N([C@@H](C)c1cc(OC)c(F)cn1)CC2 [Example 36] | 0.01 to 1 µM
* CCOc1cc([C@H](C)N2CCc3c(cc(Cn4ccnc4C)cc3-c3nn(C)nc3C)C2=O)ncc1C#N [Example 290] | < 0.01 µM
* CCOc1cc([C@H](C)N2CCc3c(cc(CCN(C)CC)cc3-c3cn(CC)nc3C)C2=O)ncc1C#N [Example 127] | < 0.01 µM
* CCOc1cc(C(C)N2CCc3c(cc(CCN(C)CC)cc3C(O)C(C)C(F)(F)F)C2=O)ncc1C#N (stereo not drawn) [Example 258] | < 0.01 µM
* CCOc1cc([C@H](C)N2CCc3c(cc(CCN(C)CC)cc3-c3ccc(N)nc3Cl)C2=O)ncc1C#N [Example 178] | < 0.01 µM
* CCOc1cc([C@H](C)N2CCc3c(cc(CCN(C)CC)cc3-c3cc(N)ncc3C)C2=O)ncc1C#N [Example 162] | < 0.01 µM
* CNc1nccn1Cc1cc2c(c(-c3ccn[nH]3)c1)CCN([C@@H](C)c1cc(OC)c(F)cn1)C2=O [Example 63] | 0.01 to 1 µM
* CCOc1cc(CN2CCc3c(cc(CCN(C)CC)cc3-c3cn(C)c(=O)cc3C)C2=O)ncc1C#N [Example 135] | < 0.01 µM
* CCOc1cc([C@H](C)N2CCc3c(cc(Cn4ccnc4C)cc3-c3cn(CCO)nc3C)C2=O)ncc1C#N [Example 271] | < 0.01 µM
* CCOc1cc(C(C)N2CCc3c(cc(CCN(C)CCF)cc3-c3cc(C)ncc3C)C2=O)ncc1C#N (stereo not drawn) [Example 248] | 0.01 to 1 µM
* CCOc1cc(C(C)N2CCc3c(cc(CCN(C)CC)cc3-n3ccnc3)C2=O)ncc1C#N (stereo not drawn) [Example 208] | 0.01 to 1 µM
